- target.or.test.system: T1, human DLL4 expressed on cells (CHO-hDLL4; HEK293-hDLL4) (human, UniProt Q9NR61 27-685)
- T1 construct: full length human DLL4 overexpressed on CHO cells (FMAT, FACS) or HEK293 cells (reporter assay)
- test.name: competition FMAT, labelled hNotch1-Fc on CHO-hDLL4 cells
pIC50: −log10 of the molar value.
Criterion: pIC50 meeting or surpassing 8. Met: Condition met. Not met: Condition not met.

{"binder": "DLLBII020 (VHH, not shown: small tags and cut ends) VHH: EVQLVESGGGLVQPGGSLRLSCAASGFTFGSYDMSWVRQSPGKGPEWVSSINSGGGSTYYADYVKGRFTISRDNAKNTLYLQMNSLRPEDTAVYYCAADRYIWARQGEYWGAYEYDYWGQGTLVTVSS", "class.label": "Condition not met"}
{"binder": "DLLBII022 (VHH, not shown: small tags and cut ends) VHH: EVQLVESGGGLVQPGGSLRLSCAASGFTFGSYDMSWVRQAPGKGPEWVSSINSGGGSTYYADYVKGRFTISRDNAKNTLYLQMNSLRPEDTAVYYCAADRYIWARQGEYWGAYEYDYWGQGTLVTVSS", "class.label": "Condition not met"}
{"binder": "DLLBII021 (VHH, not shown: small tags and cut ends) VHH: EVQLVESGGGLVQPGGSLRLSCAASGFTFGSYDMSWVRRAPGKGPEWVSSINSGGGSTYYADYVKGRFTISRDNAKNTLYLQMNSLRPEDTAVYYCAADRYIWARQGEYWGAYEYDYWGQGTLVTVSS", "class.label": "Condition met"}

Every entry's value here was drawn from patent US20140120095A1.
